Target: GCK/MAP4K2 (Homo sapiens, UniProt Q12851)
Sequence (Q12851 whole entry): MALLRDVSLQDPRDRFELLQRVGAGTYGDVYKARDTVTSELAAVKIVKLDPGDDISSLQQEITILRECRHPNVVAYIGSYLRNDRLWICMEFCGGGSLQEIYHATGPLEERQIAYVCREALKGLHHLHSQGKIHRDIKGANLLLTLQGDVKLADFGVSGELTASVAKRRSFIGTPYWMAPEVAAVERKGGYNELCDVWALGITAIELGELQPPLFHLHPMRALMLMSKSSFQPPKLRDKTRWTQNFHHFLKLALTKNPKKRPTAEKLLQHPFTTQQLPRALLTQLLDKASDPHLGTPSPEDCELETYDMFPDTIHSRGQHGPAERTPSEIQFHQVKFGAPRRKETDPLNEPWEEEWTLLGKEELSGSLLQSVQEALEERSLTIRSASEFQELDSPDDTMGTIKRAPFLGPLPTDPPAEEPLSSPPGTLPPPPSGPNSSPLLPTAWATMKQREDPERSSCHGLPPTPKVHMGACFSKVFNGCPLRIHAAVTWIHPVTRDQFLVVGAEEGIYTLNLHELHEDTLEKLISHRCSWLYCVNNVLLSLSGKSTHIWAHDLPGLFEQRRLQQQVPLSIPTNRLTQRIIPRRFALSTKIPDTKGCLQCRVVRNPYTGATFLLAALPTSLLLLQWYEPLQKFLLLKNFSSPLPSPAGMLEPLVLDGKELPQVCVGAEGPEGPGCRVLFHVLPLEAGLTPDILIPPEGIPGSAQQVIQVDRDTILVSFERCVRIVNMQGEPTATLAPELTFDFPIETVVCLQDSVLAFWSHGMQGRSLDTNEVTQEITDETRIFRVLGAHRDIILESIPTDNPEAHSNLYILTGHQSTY
Test: Kinase selectivity panel, GCK/MAP4K2
Format: biochemical
Conditions: read-out: pIC50 GCK/MAP4K2 (converted)
Measured IC50, listed per entry.

compound: O=c1[nH]cnc2c1c(-c1cnn(CCO)c1)cn2-c1ccccc1 [Ex-27]
IC50: 501 nM

compound: O=c1[nH]cnc2c1c(-c1ccc(OCC(O)CN3CCOCC3)cc1)cn2-c1cccnc1 (stereo not shown) [Ex-54]
IC50: 158 nM

compound: COCCOc1ccc(-c2cn(-c3cccc(F)c3)c3nc[nH]c(=O)c23)cn1 [Ex-29]
IC50: 1000 nM

compound: COCCOc1ccc(-c2cn(-c3cccnc3)c3nc[nH]c(=O)c23)cc1 [Ex-67]
IC50: 2000 nM

compound: CC(C)(O)CCOc1ccc(-c2cn(-c3cccnc3)c3nc[nH]c(=O)c23)cc1 [Ex-78]
IC50: 1000 nM

compound: COCCOc1ccc(-c2cn(-c3ccncc3)c3nc[nH]c(=O)c23)cc1 [Ex-28]
IC50: 1000 nM

compound: O=c1[nH]cnc2c1c(-c1cnn(C3COC3)c1)cn2-c1ccccc1 [Ex-26]
IC50: 501 nM

---

Molecular target: human MAP4K4 kinase domain (Homo sapiens, UniProt O95819)
Construct: 0.5 nM human MAP4K4 kinase domain (Invitrogen); purchased Invitrogen
Sequence (O95819 25-289 limits assumed): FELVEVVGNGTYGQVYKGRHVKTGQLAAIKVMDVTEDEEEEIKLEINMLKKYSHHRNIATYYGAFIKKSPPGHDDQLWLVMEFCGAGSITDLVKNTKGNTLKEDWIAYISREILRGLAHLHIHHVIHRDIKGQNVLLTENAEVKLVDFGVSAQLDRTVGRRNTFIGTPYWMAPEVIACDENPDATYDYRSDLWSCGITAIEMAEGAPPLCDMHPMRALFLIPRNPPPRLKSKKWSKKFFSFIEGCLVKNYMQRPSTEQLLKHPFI
Assay: MAP4K4 kinase activity, CisBio HTRF Transcreener ADP assay
Format: biochemical
Conditions: IC50 category; ATP at Km (10 μM), 0.5 nM kinase domain, 2 h; read-out: MAP4K4
pIC50: −log10 of the molar value.
Measured pIC50, listed per entry.
test.readout: pIC50

smiles.repr: O=c1[nH]cnc2c(-c3ccccc3)cn(-c3cncc(F)c3)c12
result: ≥ 7.00
//
smiles.repr: CC(=O)N1CC(n2cc(-c3cn(-c4cccc(F)c4)c4nc[nH]c(=O)c34)cn2)C1
result: ≥ 7.00
//
smiles.repr: COc1cc(-c2cn(-c3ccccc3)c3nc[nH]c(=O)c23)ccn1
result: ≥ 7.00
//
smiles.repr: CN1CCN(CCCOc2ccc(-c3cn(-c4cccnc4)c4nc[nH]c(=O)c34)cc2)CC1
result: ≥ 7.00
//
smiles.repr: O=c1[nH]cnc2c1c(-c1cnc(NCCO)nc1)cn2-c1cccnc1
result: 6.00 to 7.00
//
smiles.repr: N#Cc1cc(-c2cn(-c3ccccc3)c3nc[nH]c(=O)c23)cnc1N1CC[C@@H](O)C1
result: ≥ 7.00
//
smiles.repr: O=c1[nH]cnc2c1c(-c1ccc(OC(F)(F)CO)cc1)cn2-c1cccnc1
result: ≥ 7.00
//
smiles.repr: Nc1ccc(-c2cn(-c3ccccc3)c3c(=O)[nH]cnc23)cn1
result: ≥ 7.00
//
smiles.repr: COCCn1cc(-c2cn(-c3ccncc3)c3nc[nH]c(=O)c23)cn1
result: 6.00 to 7.00
//
smiles.repr: O=c1[nH]cnc2c1c(-c1ccc(OCCC3(O)COC3)cc1)cn2-c1cccnc1
result: ≥ 7.00
//
smiles.repr: Cc1noc(C)c1-c1cn(-c2ccccc2)c2nc[nH]c(=O)c12
result: < 6.00
//
smiles.repr: N#Cc1cc(-c2cn(-c3ccccc3)c3nc[nH]c(=O)c23)cnc1N1CC[C@H](O)C1
result: ≥ 7.00
//
smiles.repr: CC(C)(O)CCOc1ccc(-c2cn(-c3ccncc3)c3nc[nH]c(=O)c23)cc1
result: ≥ 7.00
//
smiles.repr: Cc1cc(-n2cc(-c3ccc(OCCC(C)(C)O)cc3)c3c(=O)[nH]cnc32)ccn1
result: 6.00 to 7.00
//
smiles.repr: COCCOc1ccc(-c2cn(-c3cccnc3)c3ncn(COP(=O)(O)O)c(=O)c23)cc1
result: < 6.00
//
smiles.repr: COCCOc1ccc(-c2cn(-c3cccnc3)c3cc[nH]c(=O)c23)cc1
result: ≥ 7.00
//
smiles.repr: O=c1[nH]cnc2c1c(-c1ccccc1)cn2-c1ccncc1
result: 6.00 to 7.00
//
smiles.repr: CC(C)(CO)COc1ccc(-c2cn(-c3cccnc3)c3nc[nH]c(=O)c23)cc1
result: ≥ 7.00
//
smiles.repr: COCCOc1ccc(-c2cn(-c3ccncc3)c3nc[nH]c(=O)c23)cc1
result: ≥ 7.00

---

Measured IC50, listed per entry.
Biological target: human MAP4K4 kinase domain (Homo sapiens)
Construct: 0.5 nM human MAP4K4 kinase domain (Invitrogen); purchased Invitrogen
Experiment: MAP4K4 kinase activity, CisBio HTRF Transcreener ADP assay
Format: biochemical
Conditions: read-out: pIC50 MAP4K4 (converted)

compound: O=c1[nH]cnc2c1c(-c1cnn(CCO)c1)cn2-c1ccccc1
IC50: 15.8 nM
--
compound: COCCOc1ccc(-c2cn(-c3cccnc3)c3nc[nH]c(=O)c23)cc1
IC50: 25.1 nM
--
compound: O=c1[nH]cnc2c1c(-c1ccc(OCC(O)CN3CCOCC3)cc1)cn2-c1cccnc1 (stereo not shown)
IC50: 31.6 nM
--
compound: CC(C)(O)CCOc1ccc(-c2cn(-c3cccnc3)c3nc[nH]c(=O)c23)cc1
IC50: 31.6 nM
--
compound: COCCOc1ccc(-c2cn(-c3ccncc3)c3nc[nH]c(=O)c23)cc1
IC50: 12.6 nM
--
compound: COCCOc1ccc(-c2cn(-c3cccc(F)c3)c3nc[nH]c(=O)c23)cn1
IC50: 20 nM
--
compound: O=c1[nH]cnc2c1c(-c1cnn(C3COC3)c1)cn2-c1ccccc1
IC50: 31.6 nM

---

Target: human MAP4K4 kinase domain (Homo sapiens, UniProt O95819)
Construct: 0.5 nM human MAP4K4 kinase domain (Invitrogen); purchased Invitrogen
Test: MAP4K4 kinase activity, CisBio HTRF Transcreener ADP assay
Format: biochemical
Details: IC50 category; ATP at Km (10 μM), 0.5 nM kinase domain, 2 h; read-out: MAP4K4

molecule: COc1cnc(-c2cn(-c3ccccc3)c3nc[nH]c(=O)c23)cn1 [Ex-107]
IC50: 0.1 to 1 µM

molecule: COCCOc1ccc(-c2cn(-c3cccnc3)c3nc[nH]c(=O)c23)cc1 [Ex-67]
IC50: ≤ 0.1 µM

molecule: O=c1[nH]cnc2c(-c3ccnnc3)cn(-c3ccccc3)c12 [Ex-116]
IC50: 0.1 to 1 µM

molecule: COCCCn1cc(-c2cn(-c3ccccc3)c3nc[nH]c(=O)c23)cn1 [Ex-64]
IC50: ≤ 0.1 µM

molecule: Cc1ccc(-c2cn(-c3ccccc3)c3c(=O)[nH]cnc23)cn1 [Ex-131]
IC50: > 1 µM

molecule: O=c1[nH]cnc2c(-c3ccc(OC4CC4)nc3)cn(-c3ccccc3)c12 [Ex-137]
IC50: 0.1 to 1 µM

molecule: O=c1[nH]cnc2c1c(-c1cnc(NCCO)nc1)cn2-c1ccccc1 [Ex-49]
IC50: ≤ 0.1 µM

molecule: CC(=O)OCCn1cc(-c2cn(-c3ccc(F)cc3)c3nc[nH]c(=O)c23)cn1 [Ex-47]
IC50: 0.1 to 1 µM

molecule: CC(C)(O)COc1ccc(-c2cn(-c3cccnc3)c3nc[nH]c(=O)c23)cc1 [Ex-66]
IC50: ≤ 0.1 µM

molecule: COCCCOc1ccc(-c2cn(-c3cccnc3)c3nc[nH]c(=O)c23)cc1 [Ex-71]
IC50: ≤ 0.1 µM

molecule: COCCn1cc(-c2cn(-c3cccnc3)c3nc[nH]c(=O)c23)cn1 [Ex-19]
IC50: 0.1 to 1 µM

molecule: Nc1cc(-c2cn(-c3ccccc3)c3nc[nH]c(=O)c23)ccn1 [Ex-8]
IC50: ≤ 0.1 µM

molecule: CN(CCC(C)(C)O)c1ccc(-c2cn(-c3ccccc3)c3nc[nH]c(=O)c23)cn1 [Ex-95]
IC50: ≤ 0.1 µM

molecule: Cn1cnc2cccc(-c3cn(-c4ccccc4)c4c(=O)[nH]cnc34)c21 [Ex-129]
IC50: > 1 µM

molecule: O=c1[nH]cnc2c1c(-c1ccc(OCCC3(O)CC3)cc1)cn2-c1cccnc1 [Ex-70]
IC50: ≤ 0.1 µM

molecule: O=c1[nH]cnc2c1c(-c1ccc(OCC3(CO)COC3)cc1)cn2-c1cccnc1 [Ex-79]
IC50: ≤ 0.1 µM

molecule: O=c1[nH]cnc2c(-c3ccncc3F)cn(-c3ccccc3)c12 [Ex-121]
IC50: > 1 µM

molecule: CN(C)CCCOc1ccc(-c2cn(-c3cccnc3)c3nc[nH]c(=O)c23)cc1 [Ex-33]
IC50: ≤ 0.1 µM

molecule: O=c1[nH]cnc2c1c(-c1ccc(OCC3(CO)COC3)cc1)cn2-c1ccncc1 [Ex-76]
IC50: ≤ 0.1 µM

molecule: CC(C)(C)OC(=O)N1CC(n2cc(-c3cn(-c4ccccc4)c4nc[nH]c(=O)c34)cn2)C1 [Ex-65]
IC50: ≤ 0.1 µM

molecule: O=c1[nH]cnc2c1c(-c1cnn(CCO)c1)cn2-c1cccc(F)c1 [Ex-59]
IC50: ≤ 0.1 µM

molecule: COc1ccc(-c2cn(-c3ccccc3)c3nc[nH]c(=O)c23)cn1 [Ex-18]
IC50: ≤ 0.1 µM

molecule: O=c1[nH]cnc2c1c(-c1cnc(N3CC(O)C3)nc1)cn2-c1ccccc1 [Ex-50]
IC50: 0.1 to 1 µM

molecule: COc1cc(-n2cc(-c3ccc(OCCC(C)(C)O)cc3)c3c(=O)[nH]cnc32)ccn1 [Ex-83]
IC50: 0.1 to 1 µM

molecule: COCCNc1ncc(-c2cn(-c3cccc(F)c3)c3nc[nH]c(=O)c23)cn1 [Ex-31]
IC50: ≤ 0.1 µM

molecule: COCCOc1ccc(-c2cn(-c3ccncc3)c3nc[nH]c(=O)c23)cn1 [Ex-13]
IC50: ≤ 0.1 µM

molecule: O=c1[nH]cnc2c1c(-c1ccc[nH]1)cn2-c1ccccc1 [Ex-56]
IC50: ≤ 0.1 µM

molecule: CC(=O)Nc1ccc(-c2cn(-c3ccccc3)c3nc[nH]c(=O)c23)cn1 [Ex-6]
IC50: ≤ 0.1 µM

molecule: CC(C)(O)CCOc1ccc(-c2cn(-c3cncc(F)c3)c3nc[nH]c(=O)c23)cc1 [Ex-84]
IC50: 0.1 to 1 µM

molecule: Cn1cc(-c2cn(-c3ccccc3)c3c(=O)[nH]cnc23)cn1 [Ex-120]
IC50: 0.1 to 1 µM

molecule: COCCNc1ccc(-c2cn(-c3ccccc3)c3nc[nH]c(=O)c23)cn1 [Ex-38]
IC50: ≤ 0.1 µM

molecule: COc1cc(-c2cn(-c3ccccc3)c3c(=O)[nH]cnc23)ccn1 [Ex-127]
IC50: 0.1 to 1 µM

molecule: O=c1[nH]cnc2c1c(-c1ccc(NCCO)nc1)cn2-c1ccccc1 [Ex-48]
IC50: ≤ 0.1 µM

molecule: CNCCC(=O)Nc1ccc(-c2cn(-c3ccncc3)c3nc[nH]c(=O)c23)cc1 [Ex-10]
IC50: 0.1 to 1 µM

molecule: O=c1[nH]cnc2c1c(-c1cccnc1)cn2-c1ccccc1 [Ex-5]
IC50: ≤ 0.1 µM

molecule: O=c1[nH]cnc2c(-c3ccc(NC4CC4)nc3)cn(-c3ccccc3)c12 [Ex-135]
IC50: > 1 µM

molecule: O=c1[nH]cnc2c1c(-c1ccccn1)cn2-c1ccccc1 [Ex-106]
IC50: > 1 µM

molecule: Cn1ccc(-c2cn(-c3ccccc3)c3nc[nH]c(=O)c23)n1 [Ex-25]
IC50: > 1 µM
